target: OATP4C1 (organic anion-transporting polypeptide 4C1) (Homo sapiens, UniProt Q6ZQN7); construct: stably expressed in MDCKII cells (G418), butyrate-induced; assay: inhibition of T3 uptake in OATP4C1/MDCKII cells; Ki calculated from IC50 as IC50/([…]+[S]/Km)
Sequence (Q6ZQN7 whole entry): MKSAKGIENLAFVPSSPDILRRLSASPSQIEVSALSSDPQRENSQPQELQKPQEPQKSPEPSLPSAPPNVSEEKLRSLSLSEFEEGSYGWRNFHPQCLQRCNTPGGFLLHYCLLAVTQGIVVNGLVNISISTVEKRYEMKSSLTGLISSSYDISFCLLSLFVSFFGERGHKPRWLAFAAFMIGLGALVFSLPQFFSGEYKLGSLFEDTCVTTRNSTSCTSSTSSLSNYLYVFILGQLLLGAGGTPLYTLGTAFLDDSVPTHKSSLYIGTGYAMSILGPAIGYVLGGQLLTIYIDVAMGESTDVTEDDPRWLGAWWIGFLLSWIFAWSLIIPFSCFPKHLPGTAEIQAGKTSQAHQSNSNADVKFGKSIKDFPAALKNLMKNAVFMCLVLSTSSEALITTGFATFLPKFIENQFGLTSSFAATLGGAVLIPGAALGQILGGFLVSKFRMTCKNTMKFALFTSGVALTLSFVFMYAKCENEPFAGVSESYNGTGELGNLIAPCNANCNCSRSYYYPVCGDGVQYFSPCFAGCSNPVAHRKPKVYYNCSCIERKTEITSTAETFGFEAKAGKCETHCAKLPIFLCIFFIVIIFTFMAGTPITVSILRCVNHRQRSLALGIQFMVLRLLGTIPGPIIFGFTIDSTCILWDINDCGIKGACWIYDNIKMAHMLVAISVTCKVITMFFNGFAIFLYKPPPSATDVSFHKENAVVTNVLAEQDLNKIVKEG
Would you mind telling me the reported Ki of each entry?
One number for each entry, in µM.

INSERT INTO results (compound, metric_name, units_symbol, reported_value) VALUES
  ('C[C@H](CCC(=O)NCCS(=O)(=O)O)[C@H]1CC[C@H]2[C@@H]3CC[C@@H]4C[C@H](O)CC[C@]4(C)[C@H]3CC[C@]12C [TLCA]', 'Ki', 'µM', 10.5),
  ('C[C@H](CCC(=O)O)[C@H]1CC[C@H]2[C@@H]3CC[C@@H]4C[C@H](O)CC[C@]4(C)[C@H]3CC[C@]12C [LCA]', 'Ki', 'µM', 5.23);

# next compound below
Item: C[C@H](CCC(=O)NCC(=O)O)[C@H]1CC[C@H]2[C@@H]3CC[C@@H]4C[C@H](O)CC[C@]4(C)[C@H]3CC[C@]12C [GLCA] | Ki: 8.46
